Biological target: human CB2 receptors (Homo sapiens, UniProt P34972)
Construct: (cDNA clone) CNR0200000
Test: cAMP assay in HEK-293 cells, hCB2 agonist
Format: cell-based
Listed compounds paired with reported EC50

COc1ccc(C(=O)c2cc3cc(C)n(CCN4CCCC4)c3s2)c(Cl)c1 [Compound 93]
< 100 nM
Cc1cc2cc(C(=O)c3ccccc3OC(F)(F)F)sc2n1CCN1CCOCC1 [Compound 15]
< 100 nM
Cc1cc2cc(C(=O)c3ccccc3N)sc2n1CCN1CCOCC1 [Compound 48]
< 100 nM
Cc1cc2cc(C(=O)c3cccc(Cl)c3Cl)sc2n1CCN1CCCCC1 [Compound 23]
< 100 nM
COc1ccc(C(=S)c2cc3cc(C)n(CCN4CCOCC4)c3s2)cc1 [Compound 104]
100 to 1000 nM

Query string: Reported EC50 for COc1ccc(C(=O)c2cc3cc(C)n(CC4CCOC4)c3s2)cn1 (stereo not drawn) [Compound 159] : what is it?
Result string: 1000 to 10000 nM

Query string: Reported EC50 for COc1ccc(C(=O)c2cc3cc(C)n(CC4CCSCC4)c3s2)cn1 [Compound 175] : what is it?
Result string: < 100 nM

Query string: Reported EC50 for COc1ccc(C(=O)c2cc3cc(C)n(CCCNS(N)(=O)=O)c3s2)cc1 [Compound 105] : what is it?
Result string: 1000 to 10000 nM

Query string: Reported EC50 for Cc1ccc(C(=O)c2cc3cc(C)n(CCN4CCOCC4)c3s2)cn1 [Compound 130] : what is it?
Result string: 100 to 1000 nM

----------
Listed compounds paired with reported IC50
Biological target: recombinant human cannabinoid receptor CB1 (Homo sapiens, UniProt P21554)
Construct: (cDNA clone) CNR01L000
Sequence (P21554 whole entry): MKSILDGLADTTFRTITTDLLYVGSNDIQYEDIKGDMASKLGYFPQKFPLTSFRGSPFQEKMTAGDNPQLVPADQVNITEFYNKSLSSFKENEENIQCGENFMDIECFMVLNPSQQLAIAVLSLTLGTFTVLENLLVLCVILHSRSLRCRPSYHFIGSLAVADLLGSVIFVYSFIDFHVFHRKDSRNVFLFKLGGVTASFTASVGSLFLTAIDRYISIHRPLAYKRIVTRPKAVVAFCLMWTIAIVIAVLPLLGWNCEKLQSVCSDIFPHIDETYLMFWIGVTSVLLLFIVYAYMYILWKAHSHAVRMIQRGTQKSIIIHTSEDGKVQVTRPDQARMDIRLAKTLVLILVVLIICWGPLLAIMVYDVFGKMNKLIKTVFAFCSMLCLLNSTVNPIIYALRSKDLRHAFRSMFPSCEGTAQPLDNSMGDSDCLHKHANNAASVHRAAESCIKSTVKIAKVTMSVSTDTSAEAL
Assay: Cannabinoid receptor radioligand binding assay, [3H]-CP 55,940 displacement, hCB1

Sample answers from the record:
Cc1cc2cc(C(=O)c3ccc(C#N)cc3)sc2n1CCN1CCOCC1 [Compound 129]
1 to 10 µM
COc1ccc(C(O)(c2cc3cc(C)n(CCN4CCOCC4)c3s2)C(F)(F)F)cc1 (centres unmarked) [Compound 138]
1 to 10 µM
COc1ccc(C(=O)c2cc3cc(C)[nH]c3s2)c(Cl)c1 [Compound 79]
> 10 µM
COc1ccc(C(=O)c2cc3cc(C)n(Cc4ccncc4)c3s2)cc1 [Compound 112]
1 to 10 µM
COc1ccccc1C(=O)c1cc2cc(C)n(CCN3CCOCC3)c2s1 [Compound 13]
0.1 to 1 µM

Query string: Look up IC50 with recombinant human cannabinoid receptor CB1 (Homo sapiens, UniProt P21554) for this compound: COc1ccc(C(=S)c2cc3cc(C)n(CCN4CCOCC4)c3s2)cc1 [Compound 104]
Result string: 1 to 10 µM

Query string: Look up IC50 with recombinant human cannabinoid receptor CB1 (Homo sapiens, UniProt P21554) for this compound: COc1ccc(C(=O)c2cc3cc(C)n(CCCNC(C)(C)C)c3s2)cc1 [Compound 108]
Result string: > 10 µM

Query string: Look up IC50 with recombinant human cannabinoid receptor CB1 (Homo sapiens, UniProt P21554) for this compound: Cc1cc2cc(C(=O)c3cccc(Cl)n3)sc2n1CCN1CCOCC1 [Compound 123]
Result string: 1 to 10 µM

----------
Biological target: human CB1 (hCB1) (Homo sapiens)
Construct: (cDNA clone) CNR01L000
Assay: 35S GTPγS binding assay, hCB1 agonist
Assay type: biochemical
Conditions: GTPγS agonist, HEK-293 membranes; read-out: hCB1 EC50 (GTPyS ag)
readout: EC50

Sample answers from the record:
COc1ccc(C(=O)c2cc3cc(C)n(CCCN4CCOCC4)c3s2)cc1 [Compound 107]
0.1 to 1 µM
COc1ccc(C(=O)c2cc3cc(C)n(S(=O)(=O)CCN4CCOCC4)c3s2)cc1 [Compound 139]
0.1 to 1 µM

Below: the item to evaluate.
Query string: Reported EC50 for COc1ccc(C(=O)c2cc3cc(C)n(S(=O)(=O)N4CCOCC4)c3s2)cc1 [Compound 53] : what is it?
Result string: 0.1 to 1 µM

----------
Target: recombinant human cannabinoid receptor CB1 (Homo sapiens, UniProt P21554)
Construct: (cDNA clone) CNR01L000
Experiment: Cannabinoid receptor radioligand binding assay, [3H]-CP 55,940 displacement, hCB1
pIC50: −log10 of the molar value.
readout: pIC50

COc1ccc(C(=O)c2cc3cc(C)n(S(=O)(=O)CCN4CCOCC4)c3s2)cc1
6.00 to 7.00
CCS(=O)(=O)n1c(C)cc2cc(C(=O)c3ccccc3Cl)sc21
5.00 to 6.00

Query string: Reported pIC50 for `COc1cccc(C(=O)c2cc3cc(C)n(CCN4CCOCC4)c3s2)c1` : what is it?
Result string: 6.00 to 7.00

Query string: Reported pIC50 for COc1ccc(C(=O)c2cc3cc(C)n(CCN4CCCC4C(=O)O)c3s2)cn1 (stereo not shown) : what is it?
Result string: < 5.00

Query string: Reported pIC50 for `Cc1cc2cc(C(=O)c3ccccn3)sc2n1CCN1CCOCC1` : what is it?
Result string: < 5.00

Query string: Reported pIC50 for `COc1ccc(C(=O)c2cc3cc(C)n(CCN4CCOCC4)c3s2)cc1F` : what is it?
Result string: 5.00 to 6.00

Query string: Reported pIC50 for `Cc1cc2cc(C(=O)c3cccc(Cl)c3Cl)sc2n1S(=O)(=O)C(C)C` : what is it?
Result string: 5.00 to 6.00

----------
Target: human CB2 (hCB2) (Homo sapiens)
Construct: (cDNA clone) CNR0200000
Sequence (P34972 whole entry): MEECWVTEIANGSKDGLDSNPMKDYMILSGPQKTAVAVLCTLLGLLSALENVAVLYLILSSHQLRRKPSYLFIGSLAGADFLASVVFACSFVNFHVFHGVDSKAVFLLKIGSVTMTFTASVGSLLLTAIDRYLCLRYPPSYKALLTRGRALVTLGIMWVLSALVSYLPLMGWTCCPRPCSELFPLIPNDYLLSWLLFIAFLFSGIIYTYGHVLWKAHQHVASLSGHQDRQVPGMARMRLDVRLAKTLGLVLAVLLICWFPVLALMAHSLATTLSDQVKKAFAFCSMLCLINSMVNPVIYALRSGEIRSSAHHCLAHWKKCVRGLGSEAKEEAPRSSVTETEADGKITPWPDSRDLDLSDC
Test: 35S GTPγS binding assay, hCB2 agonist
Format: biochemical
Settings: GTPγS agonist, HEK-293 membranes; read-out: hCB2 EC50 (GTPyS ag)
Protocol: cDNA expression clones for human CB1 (hCB1, Genbank Accession No. AY225225) and human CB2 (hCB2, Genbank Accession No. AY242132) expressed in vector pcDNA3.1+ were purchased from UMR cDNA Resource Center, Rolla, Mo. (Clone ID CNR01L000 for hCB1; CNR0200000 for hCB2). Membranes were isolated from transfected cells as follows. […] Protein concentration of membrane suspensions were measured by Bradford Protein Assay using bovine serum albumin as the standard (BioRad catalog #500-0006). […]
pEC50: −log10 of the molar value.
readout: pEC50

COc1ccc(C(=O)c2cc3cc(C)n(CCN4CCOC(C)(C)C4)c3s2)cn1
< 5.00
Cc1ccccc1C(=O)c1cc2cc(C)n(CCN3CCOCC3)c2s1
> 7.00
COc1ccc(C(=O)c2cc3cc(C)n(CCNC4CCOC4)c3s2)cn1 (stereo not shown)
5.00 to 6.00
Cc1cc2cc(Cc3cccc(Cl)c3Cl)sc2n1CCN1CCOCC1
> 7.00
COc1ccc(C(=O)c2cc3cc(C)n(C)c3s2)cn1
< 5.00

Below: the item to evaluate.
Query string: Reported pEC50 for COc1ccc(C(=O)c2cc3cc(C)n(CCN4CCC(OC)C4)c3s2)cn1 (stereo not shown) : what is it?
Result string: 6.00 to 7.00

----------
Target: human CB2 (hCB2) (Homo sapiens)
Construct: (cDNA clone) CNR0200000
Experiment: 35S GTPγS binding assay, hCB2 agonist
Format: biochemical
Settings: GTPγS agonist, HEK-293 membranes; read-out: hCB2 EC50 (GTPyS ag)
pEC50: −log10 of the molar value.
Listed molecules paired with reported pEC50

COc1ccc(C(=O)c2cc3cc(C)n(CCCCNS(C)(=O)=O)c3s2)cc1 [Compound 102]
> 7.00
COc1ccc(C(=O)c2cc3cc(C)n(CCN4CCCCC4)c3s2)cc1 [Compound 78]
> 7.00
Cc1cc2cc(C(=O)c3cccc(Cl)c3Cl)sc2n1S(=O)(=O)C(C)C [Compound 38]
> 7.00

Query string: Reported pEC50 for COc1ccc(C(=O)c2cc3cc(C)n(CC(=O)O)c3s2)cn1 [Compound 166] : what is it?
Result string: < 5.00

Query string: Reported pEC50 for Cc1cc2cc(C(=O)c3cccc(Cl)c3Cl)sc2n1CC1CCOCC1 [Compound 31] : what is it?
Result string: > 7.00

Query string: Reported pEC50 for Cc1cc2cc(C(=O)c3cccc(Cl)c3Cl)sc2n1S(=O)(=O)CC1CCOCC1 [Compound 46] : what is it?
Result string: > 7.00

Query string: Reported pEC50 for CCOc1ccc(C(=O)c2cc3cc(C)n(CCCNS(C)(=O)=O)c3s2)c(F)c1 [Compound 95] : what is it?
Result string: 6.00 to 7.00
